// data source = patent US11957687B2

systemTested: HSD17B13 (Homo sapiens (Human), UniProt Q7Z5P4)
Sequence (Q7Z5P4 other isoform, or with tags, fused parts or gaps): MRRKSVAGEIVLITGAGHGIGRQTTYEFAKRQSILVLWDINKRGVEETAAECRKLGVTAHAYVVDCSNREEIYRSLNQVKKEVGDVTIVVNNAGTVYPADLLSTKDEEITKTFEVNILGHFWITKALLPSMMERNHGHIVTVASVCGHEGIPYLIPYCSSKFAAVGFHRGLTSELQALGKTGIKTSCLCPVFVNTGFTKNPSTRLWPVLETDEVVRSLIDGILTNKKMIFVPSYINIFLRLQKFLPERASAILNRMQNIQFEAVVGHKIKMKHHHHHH
measurementProtocol: HSD17B13 enzymatic inhibition assay (150 nM or 50 nM HSD17B13)
Assay type: biochemical
condition: 50 nM HSD17B13; read-out: Inhibition of 50 nM of HSD17B13 IC50
measuredParameter: IC50 (nM)
# unit: nM | format: bare number

O=C(NCC1c2ccccc2-c2ccccc21)c1ccc(C(F)(F)F)[nH]c1=O; 8310

Input line: State the recorded IC50 for this entry: COc1ccc2c(c1)C(NC(=O)c1ccc(C(F)(F)F)[nH]c1=O)c1ccccc1-2 (stereo not shown)
Output line: 70

Input line: State the recorded IC50 for this entry: Cc1ccc2c(c1)CNC(=O)C2NC(=O)c1ccc(C(F)(F)F)[nH]c1=O (stereo not shown)
Output line: 2490

Input line: State the recorded IC50 for this entry: O=C(NC(c1ccccc1)c1ccc(C2=CCOC2)cc1)c1ccc(C(F)(F)F)[nH]c1=O (stereo not shown)
Output line: 1130

====

systemTested: UniProt Q7Z5P4
measurementProtocol: HSD17B13 enzymatic inhibition assay (150 nM or 50 nM HSD17B13)
Type: biochemical
condition: 50 nM HSD17B13; read-out: Inhibition of 50 nM of HSD17B13 IC50
Item-by-item account of log10(IC50)
Recorded IC50 (log10, nM)

A selection of reference data follows.
Cc1ccc2c(c1)Sc1cc(C)ccc1C2NC(=O)c1cc(-c2ccccn2)c(C(F)(F)F)[nH]c1=O; 1.00
Cc1cccc(C(NC(=O)c2ccc(C(F)(F)F)[nH]c2=O)c2cccc(C)c2)c1; 3.05
CC(=O)Nc1ccc(C(NC(=O)c2ccc(C(F)(F)F)[nH]c2=O)c2ccccc2)cc1 (stereo not shown); 3.86
CC[C@@H]1C[C@@H](NC(=O)c2ccc(C(F)(F)F)[nH]c2=O)c2cc(C)ccc2N1; 2.78
Cc1ccc2c(c1)S(=O)(=O)c1cc(C)ccc1C2NC(=O)c1cc(-c2ncccn2)c(C(F)(F)F)[nH]c1=O; 1.95
COc1cccc(C(NC(=O)c2ccc(C(F)(F)F)[nH]c2=O)c2ccc(C)cc2)c1 (stereo not shown); 2.43

Input line: # get_value(readout= log10(IC50), system= UniProt Q7Z5P4) for Cc1ccc2c(c1)OC1CCCCC1C2NC(=O)c1ccc(C(F)(F)F)[nH]c1=O (stereo not shown)
Output line: 1.60

Input line: # get_value(readout= log10(IC50), system= UniProt Q7Z5P4) for CSc1c(C)cccc1C(NC(=O)c1ccc(C(F)(F)F)[nH]c1=O)c1ccccc1 (stereo not shown)
Output line: 2.97

Input line: # get_value(readout= log10(IC50), system= UniProt Q7Z5P4) for Cc1ccc2c(c1)C(NC(=O)c1ccc(C(F)(F)F)[nH]c1=O)CCO2 (stereo not shown)
Output line: 3.12

Input line: # get_value(readout= log10(IC50), system= UniProt Q7Z5P4) for O=C(NC(c1ccc(Cl)cc1)c1cccnc1)c1ccc(C(F)(F)F)[nH]c1=O (stereo not shown)
Output line: 3.41

Input line: # get_value(readout= log10(IC50), system= UniProt Q7Z5P4) for CCC[C@@H]1C[C@@H](NC(=O)c2ccc(C(F)(F)F)[nH]c2=O)c2ccc(C)cc2N1
Output line: 2.04

Input line: # get_value(readout= log10(IC50), system= UniProt Q7Z5P4) for N#Cc1ccc(C(NC(=O)c2ccc(C(F)(F)F)[nH]c2=O)c2ccccc2)cc1 (stereo not shown) [Compound 12A]
Output line: 2.75
